These measurements were taken from patent US20180057604A1.

Target: T1, human BACE1 ECD
T1 construct: analyte of the Octet assay (200 nM) and enzyme of the first short substrate assay; also called human BACE1 extracellular domain
T1 sequence (single chain, as listed by the source limits assumed): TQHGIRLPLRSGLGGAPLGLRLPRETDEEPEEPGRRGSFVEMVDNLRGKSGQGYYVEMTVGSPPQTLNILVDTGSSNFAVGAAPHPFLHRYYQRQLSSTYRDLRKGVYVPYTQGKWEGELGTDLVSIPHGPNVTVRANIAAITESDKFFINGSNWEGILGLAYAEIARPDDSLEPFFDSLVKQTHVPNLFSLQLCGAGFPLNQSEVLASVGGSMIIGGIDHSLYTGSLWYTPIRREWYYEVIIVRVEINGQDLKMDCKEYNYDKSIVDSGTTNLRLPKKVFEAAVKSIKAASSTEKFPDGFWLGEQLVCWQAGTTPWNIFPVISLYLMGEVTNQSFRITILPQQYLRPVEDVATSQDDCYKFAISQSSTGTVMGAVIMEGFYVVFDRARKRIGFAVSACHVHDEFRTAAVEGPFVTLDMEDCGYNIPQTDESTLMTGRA
Test: Octet, pH 7.5;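 note: antibodies captured on anti-human capture sensor tips, dissociation monitored in PBS with BSA, Kd obtained from kinetic fit to a one-to-one binding model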
pKd: −log10 of the molar value.
experimental_endpoint: pKd

>>> result("6273 (antibody, V domains shown, anti-BACE1 IgG) VH: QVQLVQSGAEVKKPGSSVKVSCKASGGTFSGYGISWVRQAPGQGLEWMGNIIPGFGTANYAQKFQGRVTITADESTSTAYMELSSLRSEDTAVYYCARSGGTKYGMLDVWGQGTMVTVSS VL: EIVMTQSPATLSVSPGERATLSCRASQSVSSNIAWYQQKPGQAPRLLIYGASTRATGIPARFSGSGSGTEFTLTISSLQSEDFAVYYCQQLLLWPPRTFGGGTKVEIK")
"> 9.41"

Next:
Request the reported pKd associated with 6279 (antibody, V domains shown, anti-BACE1 IgG) VH: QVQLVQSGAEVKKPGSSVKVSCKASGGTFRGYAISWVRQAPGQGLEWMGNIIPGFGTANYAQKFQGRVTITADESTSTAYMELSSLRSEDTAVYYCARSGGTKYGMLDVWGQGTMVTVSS VL: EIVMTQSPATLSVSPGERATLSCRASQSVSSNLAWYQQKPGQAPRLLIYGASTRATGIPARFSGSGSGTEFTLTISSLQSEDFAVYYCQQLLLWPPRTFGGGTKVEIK
> 9.35
